Source listed as paper PMC7537338.

- Experiment: in vivo
- Applied conditions: C57BL/6, mouse, iv, 40 mg/kg
Where a SMILES comes first, the peptide text is derived from it. [ ]: non-standard residue; d: D form.
Recorded endpoint: half-life (h)
Note: unit h is implicit; provide only the numeric part.

Respond only with half-life recorded for C[C@H](NC(=O)[C@@H](CO)NC(=O)[C@@H](Cc1c[nH]c2ccccc12)NC(=O)[C@@H](C)N)C(=O)N[C@H](C(=O)N[C@@H](Cc1c[nH]c2ccccc12)C(=O)N[C@@H](CO)C(=O)N[C@@H](CC(N)=O)C(=O)N[C@@H](Cc1ccc(O)cc1)C(=O)N[C@H](Cc1c[nH]c2ccccc12)C(=O)N[C@H](CCCNC(=N)N)C(=O)N[C@H](Cc1c[nH]cn1)C(=O)O)[C@@H](C)O [pep-20-D12] (H-[dA][dW][dS]ATWSNY[dW][dR][dH]-OH) 6.36

###

The reader will find reported Blocking rate relative to pep-20 (%) values listed item by item below.
- Target desc: human CD47/SIRPα interaction (Homo sapiens, UniProt Q08722)
- Construct: Human or mouse CD47-IgV-Domain-hIg fusion proteins (20 nM, Sino Biological, China); purchased Sino Biological (hIg fusion); ACROBiosystems (biotinylated human CD47); host or cells: SIRPα partner: CHO cells stably expressing human SIRPα
- Sequence (Q08722 19-127 limits assumed): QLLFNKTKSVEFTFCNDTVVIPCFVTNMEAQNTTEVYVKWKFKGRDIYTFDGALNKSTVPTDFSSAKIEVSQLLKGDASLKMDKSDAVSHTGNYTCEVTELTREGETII
- Experiment: Blocking assay, human CD47 protein binding to CHO cells expressing human SIRPα (flow cytometry)
- Applied conditions: blockade of peptides to hCD47 relative to parent pep-20, Table S4
Where a SMILES comes first, the peptide text is derived from it. [ ]: non-standard residue; d: D form.
Note: unit % is implicit; provide only the numeric part.

Respond only with Blocking rate relative to pep-20 (%) recorded for C[C@H](NC(=O)[C@H](CO)NC(=O)[C@H](Cc1c[nH]c2ccccc12)NC(=O)[C@@H](C)N)C(=O)N[C@H](C(=O)N[C@@H](Cc1c[nH]c2ccccc12)C(=O)N[C@@H](CO)C(=O)N[C@@H](CC(N)=O)C(=O)N[C@@H](Cc1ccc(O)cc1)C(=O)N[C@H](Cc1c[nH]c2ccccc12)C(=O)N[C@H](CCCNC(=N)N)C(=O)N[C@H](Cc1c[nH]cn1)C(=O)O)[C@@H](C)O [pep-20-D4] (H-[dA]WSATWSNY[dW][dR][dH]-OH) 96

---
Respond only with Blocking rate relative to pep-20 (%) recorded for C[C@H](NC(=O)[C@@H](CO)NC(=O)[C@@H](Cc1c[nH]c2ccccc12)NC(=O)[C@@H](C)N)C(=O)N[C@H](C(=O)N[C@@H](Cc1c[nH]c2ccccc12)C(=O)N[C@@H](CO)C(=O)N[C@@H](CC(N)=O)C(=O)N[C@@H](Cc1ccc(O)cc1)C(=O)N[C@H](Cc1c[nH]c2ccccc12)C(=O)N[C@H](CCCNC(=N)N)C(=O)N[C@H](Cc1c[nH]cn1)C(=O)O)[C@@H](C)O [pep-20-D12] (H-[dA][dW][dS]ATWSNY[dW][dR][dH]-OH) 105

Respond only with Blocking rate relative to pep-20 (%) recorded for C[C@H](NC(=O)[C@H](CO)NC(=O)[C@H](Cc1c[nH]c2ccccc12)NC(=O)[C@@H](C)N)C(=O)N[C@H](C(=O)N[C@@H](Cc1c[nH]c2ccccc12)C(=O)N[C@@H](CO)C(=O)N[C@@H](CC(N)=O)C(=O)N[C@@H](Cc1ccc(O)cc1)C(=O)N[C@@H](Cc1c[nH]c2ccccc12)C(=O)N[C@H](CCCNC(=N)N)C(=O)N[C@H](Cc1c[nH]cn1)C(=O)O)[C@@H](C)O [pep-20-D3] (H-[dA]WSATWSNYW[dR][dH]-OH) 75
